# System: Escherichia coli
# protocolNotes: Antibacterial activity against Escherichia coli ATCC 25922 assessed as reduction in microbial growth incubated for 24 hrs by broth microdilution method
# Type: functional
Give MIC for every item shown.
One number for each entry, in µg/mL.

I'm hoping you can list MIC for every compound here, please.
1. CCn1cc(C(=O)O)c(=O)c2cc(F)c(N3CCN(Cc4nc(C)c5c(c4CO)COC(C)(C)O5)C(C)C3)c(F)c21 (stereo not drawn)
2. COc1c(N2C[C@@H]3CCCN[C@@H]3C2)c(F)cc2c(=O)c(C(=O)O)cn(C3CC3)c12

Solution:
[8, 1]

---

# protocolNotes: Cytotoxicity against human CHL assessed as reduction in cell viability incubated for 72 hrs by MTT assay
# Format: toxicity, cell-based
# conditionParameters: CHL cells
recordedMetric: CC50 at 72 h
Number plus unit, in that order.

Sample answers from the record:
[[record]]
molecule = "COc1c(N2C[C@@H]3CCCN(Cc4cnc(C)c5c4COC(C)(C)O5)[C@@H]3C2)c(F)cc2c(=O)c(C(=O)O)cn(C3CC3)c12"
result = "2.85 mg/L"

[[record]]
molecule = "CCCC1OCc2c(CN3CCC[C@H]4CN(c5c(F)cc6c(=O)c(C(=O)O)cn(C7CC7)c6c5OC)C[C@H]43)cnc(C)c2O1 (some centres not stated)"
result = "2.46 mg/L"

[[record]]
molecule = "Cc1nc(CO)c(CN2CCN(c3cc4c(cc3F)c(=O)c(C(=O)O)cn4C3CC3)CC2)c(CO)c1O.Cl"
result = "31.8 mg/L"


I'm hoping you can list CC50 at 72 h for every molecule here, please.
1. COc1c(N2C[C@@H]3CCCN(Cc4cnc(C)c(O)c4CO)[C@@H]3C2)c(F)cc2c(=O)c(C(=O)O)cn(C3CC3)c12.Cl
2. COc1c(N2C[C@@H]3CCCN[C@@H]3C2)c(F)cc2c(=O)c(C(=O)O)cn(C3CC3)c12 [MOXIFLOXACIN]
3. COc1c(N2C[C@@H]3CCCN(Cc4cnc(C)c5c4COCO5)[C@@H]3C2)c(F)cc2c(=O)c(C(=O)O)cn(C3CC3)c12.Cl
4. CCn1cc(C(=O)O)c(=O)c2cc(F)c(N3CCNCC3)cc21 [NORFLOXACIN]
5. COc1c(N2C[C@@H]3CCCN(Cc4nc(C)c(O)c(CO)c4CO)[C@@H]3C2)c(F)cc2c(=O)c(C(=O)O)cn(C3CC3)c12.Cl

Solution:
["18.6 mg/L", "35 mg/L", "2.34 mg/L", "38.1 mg/L", "24.2 mg/L"]

---

# Test system: Staphylococcus aureus
# protocolNotes: Antibacterial activity against clinical isolate Staphylococcus aureus 4721 assessed as reduction in microbial growth incubated for 24 hrs by broth microdilution method
# Assay type: functional
Give log10(MIC) for every item shown.
# log10 transformed; quantity=MIC; unit=µg/mL

[[record]]
compound = "CCCC1OCc2c(CN3CCC[C@H]4CN(c5c(F)cc6c(=O)c(C(=O)O)cn(C7CC7)c6c5OC)C[C@H]43)cnc(C)c2O1 (some centres undefined)"
recordedmetric = "log10(MIC)"
recordednumber = 0.30

[[record]]
compound = "CCn1cc(C(=O)O)c(=O)c2cc(F)c(N3CCNC(C)C3)c(F)c21 (centres undefined) [LOMEFLOXACIN]"
recordedmetric = "log10(MIC)"
recordednumber = 0.00

[[record]]
compound = "COc1c(N2C[C@@H]3CCCN(Cc4cnc(C)c(O)c4C)[C@@H]3C2)c(F)cc2c(=O)c(C(=O)O)cn(C3CC3)c12.Cl.Cl"
recordedmetric = "log10(MIC)"
recordednumber = -1.22

[[record]]
compound = "Cc1ncc(CN2CCN(c3cc4c(cc3F)c(=O)c(C(=O)O)cn4C3CC3)CC2)c(CO)c1O.Cl"
recordedmetric = "log10(MIC)"
recordednumber = -0.30

[[record]]
compound = "Cc1ncc(CN2CCN(c3cc4c(cc3F)c(=O)c(C(=O)O)cn4C3CC3)CC2)c(C)c1O.Cl"
recordedmetric = "log10(MIC)"
recordednumber = -0.30


I'm hoping you can list log10(MIC) for every compound here, please.
1. COc1c(N2C[C@@H]3CCCN(Cc4cnc(C)c(O)c4CO)[C@@H]3C2)c(F)cc2c(=O)c(C(=O)O)cn(C3CC3)c12.Cl
2. Cc1ncc(CN2CCN(c3cc4c(cc3F)c(=O)c(C(=O)O)cn4C3CC3)CC2)c2c1OCOC2.Cl

Solution:
[-0.89, -0.89]

I'm hoping you can list log10(MIC) for every compound here, please.
1. COc1c(N2C[C@@H]3CCCN(Cc4cnc(C)c5c4COC(C)(C)O5)[C@@H]3C2)c(F)cc2c(=O)c(C(=O)O)cn(C3CC3)c12
2. COc1c(N2C[C@@H]3CCCN(Cc4c(CO)nc(C)c(O)c4CO)[C@@H]3C2)c(F)cc2c(=O)c(C(=O)O)cn(C3CC3)c12.Cl

Solution:
-0.30
-0.60

---

# Test system: Enterococcus faecalis
# protocolNotes: Antibacterial activity against clinical isolate Enterococcus faecalis 1465 assessed as reduction in microbial growth incubated for 24 hrs by broth microdilution method
# Assay type: functional
recordedMetric: MIC (µg/mL)
One number for each entry, in µg/mL.

Sample answers from the record:
[[record]]
compound = "CCn1cc(C(=O)O)c(=O)c2cc(F)c(N3CCN(Cc4cnc(C)c(O)c4CO)C(C)C3)c(F)c21.Cl (centres undefined)"
endpointunit = "µg/mL"
recordednumber = 8

[[record]]
compound = "CCn1cc(C(=O)O)c(=O)c2cc(F)c(N3CCN(Cc4cnc(C)c5c4COCO5)CC3)cc21.Cl"
endpointunit = "µg/mL"
recordednumber = 32


Problem: I would be grateful if you could share the reported MIC for `COc1c(N2C[C@@H]3CCCN(Cc4cnc(C)c5c4COCO5)[C@@H]3C2)c(F)cc2c(=O)c(C(=O)O)cn(C3CC3)c12.Cl` .
Solution: 1

---

# protocolNotes: Cytotoxicity against human CHL assessed as reduction in cell viability incubated for 72 hrs by MTT assay
# Format: toxicity, cell-based
# conditionParameters: CHL cells
Assign labels as follows, please: rule met for CC50 at 72 h below 10 µg/mL; rule not met for CC50 at 72 h equal to or exceeding 10 µg/mL.

Reference set, count: 3
[[record]]
molecule = "COc1c(N2C[C@@H]3CCCN(Cc4c(CO)nc(C)c(O)c4CO)[C@@H]3C2)c(F)cc2c(=O)c(C(=O)O)cn(C3CC3)c12.Cl"
cat = "rule not met"

[[record]]
molecule = "COc1c(N2C[C@@H]3CCCN(Cc4cnc(C)c(O)c4C)[C@@H]3C2)c(F)cc2c(=O)c(C(=O)O)cn(C3CC3)c12.Cl.Cl"
cat = "rule met"

[[record]]
molecule = "Cc1ncc(CN2CCN(c3cc4c(cc3F)c(=O)c(C(=O)O)cn4C3CC3)CC2)c(C)c1O.Cl"
cat = "rule not met"


Problem: Please indicate whether the reported CC50 at 72 h of `Cc1ncc(CN2CCN(c3cc4c(cc3F)c(=O)c(C(=O)O)cn4C3CC3)CC2)c(CO)c1O.Cl` is strictly below 10 µg/mL.
Solution: rule not met

Problem: Please indicate whether the reported CC50 at 72 h of `COc1c(N2C[C@@H]3CCCN(Cc4nc(C)c5c(c4CO)COC(C)(C)O5)[C@@H]3C2)c(F)cc2c(=O)c(C(=O)O)cn(C3CC3)c12` is strictly below 10 µg/mL.
Solution: rule met

Problem: Please indicate whether the reported CC50 at 72 h of CCn1cc(C(=O)O)c(=O)c2cc(F)c(N3CCN(Cc4cnc(C)c(O)c4CO)C(C)C3)c(F)c21.Cl (configuration not stated) is strictly below 10 µg/mL.
Solution: rule met

---

# protocolNotes: Toxicity in po dosed F1 C57Bl6 x CBA mouse assessed as lethal dose
# Assay type: organism-based
# conditionParameters: in vivo
recordedMetric: LD50

Problem: I would be grateful if you could share the reported LD50 for `Cc1ncc(CN2CCN(c3cc4c(cc3F)c(=O)c(C(=O)O)cn4C3CC3)CC2)c(CO)c1O.Cl` .
Solution: > 2000 mg/kg

---

Give MIC for every item shown.
# Test system: Escherichia coli
# protocolNotes: Antibacterial activity against Escherichia coli ATCC 25922 assessed as reduction in microbial growth incubated for 24 hrs by broth microdilution method
# Format: functional
Give bare numbers, in µg/mL.

[[record]]
molecule = "Cc1ncc(CN2CCN(c3cc4c(cc3F)c(=O)c(C(=O)O)cn4C3CC3)CC2)c(CO)c1O.Cl"
recordednumber = 2

[[record]]
molecule = "Cc1nc(CN2CCN(c3cc4c(cc3F)c(=O)c(C(=O)O)cn4C3CC3)CC2)c(CO)c(CO)c1O.Cl"
recordednumber = 64


I'm hoping you can list MIC for every molecule here, please.
1. CCn1cc(C(=O)O)c(=O)c2cc(F)c(N3CCN(Cc4nc(C)c(O)c(CO)c4CO)C(C)C3)c(F)c21.Cl (stereo unspecified)
2. COc1c(N2C[C@@H]3CCCN(Cc4cnc(C)c5c4COCO5)[C@@H]3C2)c(F)cc2c(=O)c(C(=O)O)cn(C3CC3)c12.Cl

Solution:
[2, 2]

I'm hoping you can list MIC for every molecule here, please.
1. CCn1cc(C(=O)O)c(=O)c2cc(F)c(N3CCN(Cc4cnc(C)c(O)c4C)C(C)C3)c(F)c21.Cl (stereo unspecified)
2. Cc1nc(CO)c(CN2CCN(c3cc4c(cc3F)c(=O)c(C(=O)O)cn4C3CC3)CC2)c(CO)c1O.Cl

Solution:
1. 2
2. 64
